Examples of compounds with documented IC50 follow.
test: DPPH• radical scavenging assay; details: 100 µM DPPH•, 30 min, room temperature, dark; read-out: DPPH● radical scavenging (RS) activity IC50
ASSAY_READOUT: IC50

# TEST_SMILES, ASSAY_READOUT, RESULT
data = [
    ("CC(C)c1cnc(C(=O)/C=C/c2ccccc2O)cn1", "IC50", "> 1000 µM"),
    ("O=C(/C=C/c1ccc(O)cc1)c1ccccc1", "IC50", "> 1000 µM"),
    ("O=C(/C=C/c1cccc(O)c1)c1ccccc1", "IC50", "> 1000 µM"),
]

----------
Examples of compounds with documented IC50 follow.
assay: MTS cytotoxicity assay, overnight, HepG2; format: cell-based; conditions: human, HepG2 cells, concentration range 100–0.2 µM

# COMPOUND, IC50
rows = [
    ("O=C(/C=C/c1ccc(O)cc1)c1ccccc1 [Compound 3]", "> 100 µM"),
    ("COc1cc(/C=C/C(=O)c2ccccc2)ccc1O [Compound 4]", "> 100 µM"),
    ("CC(C)c1cnc(C(=O)/C=C/c2ccccc2O)cn1 [Compound 1c]", "> 100 µM"),
]
